pKi: −log10 of the molar value.
Measured pKi on Human immunodeficiency virus type 1 protease (Human immunodeficiency virus 1) follows.
parameter_measured: pKi

> print(dat)
                                smiles.text  data.value
1  COc1ccc(S(=O)(=O)N(CC2CCCC2)C[C@@H](O)CN2C(=O)[C@H](Cc3cccc(C#N)c3)OC[C@@H]2Cc2ccccc2)cc1        6.31
2  COc1ccc(S(=O)(=O)N(CC2CCCC2)C[C@@H](O)CN2C(=O)[C@@H](CCCN)OC[C@@H]2Cc2ccccc2)cc1        5.24
3  COc1ccc(S(=O)(=O)N(CC2CCCC2)N2C(=O)C3(CCOCC3)OC[C@@H]2Cc2ccccc2)cc1        7.64
4  COc1ccc(S(=O)(=O)N(CC2CCCC2)C[C@@H](O)CN2C(=O)C3(CCCCC3)OC[C@@H]2Cc2ccccc2)cc1        8.70

---

measured_on: Human immunodeficiency virus type 1 protease (Human immunodeficiency virus 1, UniProt Q72874)
experiment_notes: Inhibition of HIV protease
pKi: −log10 of the molar value.
The following molecules are shown together with reported pKi values.
parameter_measured: pKi

> print(dat)
                                smiles.text  data.value
1  COc1ccc(S(=O)(=O)N(CC2CCCC2)C[C@@H](O)CN2C(=O)[C@@H](Cc3cccc(C#N)c3)OC[C@@H]2Cc2ccccc2)cc1        7.26
2  COc1ccc(S(=O)(=O)N(CC2CCCC2)C[C@@H](O)CN2C(=O)[C@@H](CCO)OC[C@@H]2Cc2ccccc2)cc1        7.52
3  C=CC[C@@H]1OC[C@H](Cc2ccccc2)N(C[C@H](O)CN(CC2CCCC2)S(=O)(=O)c2ccc(OC)cc2)C1=O        6.57
4  COc1ccc(S(=O)(=O)N(CC2CCCC2)C[C@@H](O)CN2C(=O)[C@@H](CCC#N)OC[C@@H]2Cc2ccccc2)cc1        7.96
